assay: Sustained plasma levels after oral dosing (half-life, species not stated); type: in vivo; conditions: oral administration, read-out: t½ (sustained plasma levels) (converted)
QUANTITY_MEASURED: half-life

Inquiry: Fill in: half-life of CC(C)[C@@H]1CC[C@@H](C)C[C@H]1C(=O)Nc1cc(-c2ccccc2)nn1CCN is ___
Reply text: ~9 h

Inquiry: Fill in: half-life of COc1ccc2c(c1)n(CCN)c(=O)n2C(=O)[C@@H]1C[C@H](C)CC[C@H]1C(C)C is ___
Reply text: ~9 h

Inquiry: Fill in: half-life of CC(C)[C@@H]1CC[C@@H](C)C[C@H]1C(=O)n1c(=O)n(CCN)c2ccccc21 is ___
Reply text: ~9 h
